Target: Sulfonylurea receptor 1, Kir6.2 (Homo sapiens) (UniProt Q14654+Q09428)
Assay: Antiarrhythmic effect in hSUR1/hKir6.2 (pancreatic KATP channel) transfected in CHO cells at a dose of 1 uM
Format: functional, cell-based
Conditions: at 1 µM
As shown below, each of these molecules has a reported inhibition value.
Entry rule: numbers only, all in %.

Structure string: CN/C(S)=N/S(=O)(=O)c1cc(CCNC(=O)c2cc(Cl)ccc2OC)c(OC)c(C)c1OC
Assayed target: Sulfonylurea receptor 1, Kir6.2 (Homo sapiens) (UniProt Q14654+Q09428)
inhibition [%]: 6.7

Structure string: CN/C(S)=N/S(=O)(=O)c1cc(CCNC(=O)c2cc(Cl)ccc2OC)ccc1-c1ccco1
Assayed target: Sulfonylurea receptor 1, Kir6.2 (Homo sapiens) (UniProt Q14654+Q09428)
inhibition [%]: 16

Structure string: CN/C(S)=N/S(=O)(=O)c1cccc(CCNC(=O)c2cc(Cl)ccc2OC)c1
Assayed target: Sulfonylurea receptor 1, Kir6.2 (Homo sapiens) (UniProt Q14654+Q09428)
inhibition [%]: 1.9

Structure string: CN/C(S)=N/S(=O)(=O)c1cc(CCNC(=O)c2cc(Cl)ccc2OC)ccc1SC
Assayed target: Sulfonylurea receptor 1, Kir6.2 (Homo sapiens) (UniProt Q14654+Q09428)
inhibition [%]: 15.2

Could you now look at the following molecule, please?
Please look up its inhibition: CN/C(S)=N/S(=O)(=O)c1cc(CCNC(=O)c2cc(Cl)ccc2OC)c(C)c(C)c1OC
6.1
